Cited source: patent US4018895A

System: norepinephrine uptake by synaptosomes from rat brain
assayText: In vitro blockade of norepinephrine uptake by synaptosomes from rat brain
Type: biochemical
conditionSummary: Table 1, scaffold drawing 3; norepinephrine 0.48 μM
Text: This blockade is shown both in vitro with radioactive labelled compounds to determine the amount of monoamine uptake by synaptosomes from rat brain, and in vivo by a variety of methods. Among the physiologically active monoamines whose uptake is blocked by the compounds of this invention are included serotonin, norepinephrine and dopamine (3,4-dihydroxyphenylethylamine). […]
Form field: Concentration that blocks 50% of amine uptake, Norepinephrine (one value per entry).
Write the value in mcq./ml. as a bare number.

Answered examples (3):
Quick one: Concentration that blocks 50% of amine uptake, Norepinephrine for CN(C)CCC(Oc1cccc2ccccc12)c1ccccc1.O=C(O)/C=C\C(=O)O (centres unmarked) ?
3

Also CN(C)CCC(Oc1ccccc1C(C)(C)C)c1ccccc1.O=C(O)C(=O)O (centres unmarked) ?
1.5

Also Cc1cc(F)ccc1OC(CCN(C)C)c1ccccc1.O=C(O)C(=O)O (centres unmarked) ?
2.5

Further cases:
Quick one: Concentration that blocks 50% of amine uptake, Norepinephrine for CN(C)CCC(Oc1cccc(C(F)(F)F)c1)c1ccccc1.O=C(O)C(=O)O (centres unmarked) ?
8

====

System: hypothermia induced by the injection of reserpine
assayText: Reserpine hypothermia reversal test
Format: in vivo, mice
conditionSummary: Mus musculus, ip, 1 h, Table 5, dimethylamino compounds; 3 mg./kg. intraperitoneally; Post-60 min.; mice; read-out: Percent Antagonism Reserpine
Experimental: The apomorphine hypothermia antagonism test is carried out as follows: mice are injected with a dose of apomorphine known to reduce body temperature approximately 4° C. The compound under test is injected 1/2 hour before the injection of the apomorphine and the temperatures measured 1/2 hour after injection. The degree of antagonism is expressed as a percent reduction (as compared with controls) of the temperature decrease produced by the injection of the apomorphine. […]
valueKind: inhibition in vivo at 3 mg/kg (%)
Write the value in % as a bare number.

Answered examples (3):
Quick one: inhibition in vivo at 3 mg/kg for CNCCC(Oc1cccc(OC)c1)c1ccccc1.O=C(O)C(=O)O (centres unmarked) [m-anisyl, oxalate] ?
6

Also CN(C)CCC(Oc1ccccc1)c1ccccc1 (centres unmarked) [phenyl] ?
20

Also CCc1ccccc1OC(CCN(C)C)c1ccccc1.O=C(O)C(=O)O (centres unmarked) [o-ethylphenyl, oxalate] ?
13

Further cases:
Quick one: inhibition in vivo at 3 mg/kg for CN(C)CCC(Oc1ccccc1Br)c1ccccc1.O=C(O)C(=O)O (centres unmarked) [o-bromophenyl, oxalate] ?
18

Also CN(C)CCC(Oc1ccccc1Cl)c1ccccc1.O=C(O)/C=C\C(=O)O (centres unmarked) [o-chlorophenyl, maleate] ?
4

====

Tested on: norepinephrine uptake by synaptosomes from rat brain
assayText: In vitro blockade of norepinephrine uptake by synaptosomes from rat brain
Format: biochemical
conditionSummary: Table 1, scaffold drawing 3; norepinephrine 0.48 μM
valueKind: Concentration that blocks 50% of amine uptake, Norepinephrine

Quick one: Concentration that blocks 50% of amine uptake, Norepinephrine for CN(C)CCC(Oc1ccc(F)cc1F)c1ccccc1 (stereo not shown) [2,4-difluorophenyl] ?
.2 mcq./ml.

Also CCc1ccccc1OC(CCN(C)C)c1ccccc1.O=C(O)C(=O)O (stereo not shown) [o-ethylphenyl] ?
> 100 mcq./ml.

Also COc1cccc(OC(CCN(C)C)c2ccccc2)c1.O=C(O)C(=O)O (stereo not shown) [m-methoxyphenyl] ?
.2 mcq./ml.

We next turn to a different molecule, shown below.
Quick one: Concentration that blocks 50% of amine uptake, Norepinephrine for CN(C)CCC(Oc1ccccc1Cl)c1ccccc1.O=C(O)/C=C\C(=O)O (stereo not shown) [o-chlorophenyl] ?
.45 mcq./ml.

====

Form field: inhibition in vivo at 3 mg/kg (one value per entry).
System: hypothermia induced by the injection of apomorphine
assayText: Apomorphine hypothermia antagonism test
Format: in vivo, mice
conditionSummary: Mus musculus, Table 5, dimethylamino compounds; 3 mg./kg.; Pre-30 min.; mice; read-out: Percent Antagonism Apomorphine
Write the value in % as a bare number.

Quick one: inhibition in vivo at 3 mg/kg for COc1ccccc1OC(CCN(C)C)c1ccccc1 (centres unmarked) ?
30

Also CN(C)CCC(Oc1ccc(Cl)cc1)c1ccccc1 (centres unmarked) ?
43

Also CCc1ccccc1OC(CCN(C)C)c1ccccc1.O=C(O)C(=O)O (centres unmarked) [o-ethylphenyl, oxalate] ?
20

Also CN(C)CCC(Oc1cccc2ccccc12)c1ccccc1.O=C(O)/C=C\C(=O)O (stereo not drawn) [α-naphthyl, maleate] ?
-10

Further cases:
Quick one: inhibition in vivo at 3 mg/kg for CN(C)CCC(Oc1ccc(F)cc1)c1ccccc1 (centres unmarked) ?
63
